# Tested on: HIVLAI
# test_details: antiviral activity in MT-2 human-T-lymphoid cells exposed to HIVLAI
# Type: cell-based, HIV-1
# setup_conditions: Human immunodeficiency virus 1, MT2, antiviral, MT-2 cells exposed to HIVLAI; Table 1 and text; read-out: IC50
readout_name: IC50 (nM)
Kindly provide the numeric value in nM only, without the unit symbol.

Known results for molecules:
                               input_smiles  readout_name  output_unit  reported_value
0  COc1ccc(S(=O)(=O)N(CC(C)C)C[C@@H](O)[C@H](Cc2ccccc2)NC(=O)c2cc(Nc3nc(-c4cccnc4)cs3)ccc2C)cc1          IC50           nM             580
1  Cc1ccc(C(=O)N[C@@H](Cc2cc(F)cc(F)c2)[C@H](O)CN(CC(C)C)S(=O)(=O)c2ccc(N)cc2)cc1Nc1nccc(-c2cccnc2)n1          IC50           nM             212
2  COc1ccc(S(=O)(=O)N(CC(C)C)C[C@@H](O)[C@H](Cc2cc(F)cc(F)c2)NC(=O)c2ccc(C)c(Nc3nccc(-c4cccnc4)n3)c2)cc1          IC50           nM             124

# next molecule below
Entry under review: COCc1csc(Nc2ccc(C)c(C(=O)N[C@@H](Cc3ccccc3)[C@H](O)CN(CC(C)C)S(=O)(=O)c3ccc(OC)cc3)c2)n1 . Reported IC50?
630

* * *

# system_under_test: HIV-1 protease (Human immunodeficiency virus type 1 group M subtype B)
# Construct: catalytically active dimeric HIV-1 protease
# test_details: HIV-1 protease enzyme-inhibitory assay (Toth and Marshall)
# setup_conditions: HIV-1 protease inhibitory activity
readout_name: pKi
Bear in mind: pKi is minus log10 of a mol/L concentration; give just that figure.

Recorded results for 2 molecules are shown here.
>>> print(df.to_string())
                               input_smiles  reported_value
0  COc1ccc(S(=O)(=O)N(CC(C)C)C[C@@H](O)[C@H](Cc2ccccc2)NC(=O)c2ccc(C)c(Nc3nccc(-c4cccnc4)n3)c2)cc1           10.55
1  Cc1ccc(C(=O)N[C@@H](Cc2cc(F)cc(F)c2)[C@H](O)CN(CC(C)C)S(=O)(=O)c2ccc(N)cc2)cc1Nc1nccc(-c2cccnc2)n1            8.72

State its pKi on HIV-1 protease (Human immunodeficiency virus type 1 group M subtype B): COc1ccc(S(=O)(=O)N(CC(C)C)C[C@@H](O)[C@H](Cc2ccccc2)NC(=O)c2ccc(C)c(Nc3nc(-c4cccnc4)cs3)c2)cc1
7.42

Given the entry COc1ccc(S(=O)(=O)N(CC(C)C)C[C@@H](O)[C@H](Cc2ccccc2)NC(=O)c2ccc(C)c(Nc3nc(C(F)(F)F)cs3)c2)cc1 , what pKi was observed with HIV-1 protease (Human immunodeficiency virus type 1 group M subtype B)?
7.22

Look up pKi with HIV-1 protease (Human immunodeficiency virus type 1 group M subtype B) for this molecule: COc1ccc(S(=O)(=O)N(CC(C)C)C[C@@H](O)[C@H](Cc2ccccc2)NC(=O)c2cc(C)cc(Nc3nc(C)cs3)c2)cc1
7.10

For the record COCc1csc(Nc2ccc(C)c(C(=O)N[C@@H](Cc3ccccc3)[C@H](O)CN(CC(C)C)S(=O)(=O)c3ccc(OC)cc3)c2)n1 , what value of pKi is listed for HIV-1 protease (Human immunodeficiency virus type 1 group M subtype B)?
7.74

* * *

# Tested on: HIVLAI
# test_details: antiviral activity in MT-2 human-T-lymphoid cells exposed to HIVLAI
# Type: cell-based, HIV-1
# setup_conditions: Human immunodeficiency virus 1, MT2, antiviral, MT-2 cells exposed to HIVLAI; Table 1 and text; read-out: IC50
readout_name: pIC50
Here pIC50 is given on a logarithmic scale as minus log10 of the concentration in mol/L.

Examples with their reported pIC50 follow.
                               input_smiles  reported_value
0  COc1ccc(S(=O)(=O)N(CC(C)C)C[C@@H](O)[C@H](Cc2ccccc2)NC(=O)c2ccc(C)c(Nc3nc(-c4cccnc4)cs3)c2C)cc1            6.29
1  COc1ccc(S(=O)(=O)N(CC(C)C)C[C@@H](O)[C@H](Cc2ccccc2)NC(=O)c2ccc(C)c(Nc3nc(-c4cccnc4)cs3)c2)cc1            6.41

Now take the following molecule into account.
Kindly state the measured pIC50 obtained for COc1ccc(S(=O)(=O)N(CC(C)C)C[C@@H](O)[C@H](Cc2ccccc2)NC(=O)c2ccc(C)c(Nc3nccc(-c4cccnc4)n3)c2)cc1 with HIVLAI.
6.81

* * *

Recorded log10 Ki by entry
# system_under_test: HIV-1 protease (Human immunodeficiency virus type 1 group M subtype B, UniProt P04585)
# Construct: catalytically active dimeric HIV-1 protease
# test_details: HIV-1 protease enzyme-inhibitory assay (Toth and Marshall)
# setup_conditions: HIV-1 protease inhibitory activity
Hello, just confirming the data are log10 of Ki with units of nM.

A selection of reference data follows.
>>> print(df.to_string())
                               input_smiles  reported_value
0  Cc1ccc(C(=O)N[C@@H](Cc2ccccc2)[C@H](O)CN(CC(C)C)S(=O)(=O)c2ccc(N)cc2)cc1Nc1nccc(-c2cccnc2)n1           -0.77
1  COc1ccc(S(=O)(=O)N(CC(C)C)C[C@@H](O)[C@H](Cc2ccccc2)NC(=O)c2cccc(Nc3nc(C)cs3)c2C)cc1            1.86
2  COc1ccc(S(=O)(=O)N(CC(C)C)C[C@@H](O)[C@H](Cc2ccccc2)NC(=O)c2cc(Nc3nc(C)cs3)ccc2C)cc1            1.88
3  COc1ccc(S(=O)(=O)N(CC(C)C)C[C@@H](O)[C@H](Cc2ccccc2)NC(=O)c2cc(C)cc(Nc3nc(-c4cccnc4)cs3)c2)cc1            2.27

Next item in the queue.
# returns recorded log10 Ki (system: HIV-1 protease (Human immunodeficiency virus type 1 group M subtype B, UniProt P04585)) for COc1ccc(S(=O)(=O)N(CC(C)C)C[C@@H](O)[C@H](Cc2ccccc2)NC(=O)c2cccc(Nc3nc(-c4cccnc4)cs3)c2C)cc1
1.29

* * *

# Tested on: HIVLAI
# test_details: antiviral activity in MT-2 human-T-lymphoid cells exposed to HIVLAI
# Assay type: cell-based, HIV-1
# setup_conditions: antiviral, MT-2 cells exposed to HIVLAI; Table 1 and text; read-out: IC50
readout_name: pIC50
In plain terms, pIC50 is the concentration in mol/L turned into minus its base-10 logarithm.

Suppose we examine the molecule Cc1ccc(C(=O)N[C@@H](Cc2ccccc2)[C@H](O)CN(CC(C)C)S(=O)(=O)c2ccc(N)cc2)cc1Nc1nccc(-c2cccnc2)n1 ; what pIC50 value has been reported?
7.18

* * *

# Test system: HIVLAI
# test_details: antiviral activity in MT-2 human-T-lymphoid cells exposed to HIVLAI
# Type: cell-based, HIV-1
# setup_conditions: Human immunodeficiency virus 1, MT2, antiviral, MT-2 cells exposed to HIVLAI; Table 2; read-out: IC50
pIC50: −log10 of the molar value.
readout_name: pIC50

Could you share which pIC50 value was measured for COc1ccc(S(=O)(=O)N(CC(C)C)C[C@@H](O)[C@H](Cc2ccccc2)NC(=O)c2cccc(Nc3nc(C(F)(F)F)cs3)c2C)cc1 ?
< 6.00

* * *

We begin with a simple list: items and their reported pIC50.
# Test system: HIVLAI
# test_details: antiviral activity in MT-2 human-T-lymphoid cells exposed to HIVLAI
# Type: cell-based, HIV-1
# setup_conditions: Human immunodeficiency virus 1, MT2, antiviral, MT-2 cells exposed to HIVLAI; Table 2; read-out: IC50
pIC50: −log10 of the molar value.

                               input_smiles  readout_name  reported_value
0  COc1ccc(S(=O)(=O)N(CC(C)C)C[C@@H](O)[C@H](Cc2ccccc2)NC(=O)c2cccc(Nc3nc(C)cs3)c2C)cc1         pIC50          < 6.00

Attention now turns to another entry.
Consider the molecule COc1ccc(S(=O)(=O)N(CC(C)C)C[C@@H](O)[C@H](Cc2ccccc2)NC(=O)c2cc(Nc3nc(C)cs3)ccc2C)cc1 and give its measured pIC50.
< 6.00

* * *

We begin with a simple list: items and their reported pIC50.
# Test system: HIVLAI
# test_details: antiviral activity in MT-2 human-T-lymphoid cells exposed to HIVLAI
# Assay type: cell-based, HIV-1
# setup_conditions: Human immunodeficiency virus 1, MT2, antiviral, MT-2 cells exposed to HIVLAI; Table 2; read-out: IC50
pIC50: −log10 of the molar value.

# count of solved cases: 2
>>> print(df.to_string())
                                   compound  system_under_test  reported_value
0  COCc1csc(Nc2ccc(C)c(C(=O)N[C@@H](Cc3ccccc3)[C@H](O)CN(CC(C)C)S(=O)(=O)c3ccc(OC)cc3)c2)n1 [Compound 5p]             HIVLAI            6.20
1  COc1ccc(S(=O)(=O)N(CC(C)C)C[C@@H](O)[C@H](Cc2ccccc2)NC(=O)c2cc(C)cc(Nc3nc(C)cs3)c2)cc1 [Compound 5l]             HIVLAI          < 6.00

Lab note: need pIC50 for COc1ccc(S(=O)(=O)N(CC(C)C)C[C@@H](O)[C@H](Cc2ccccc2)NC(=O)c2ccc(C)c(Nc3nc(C(F)(F)F)cs3)c2)cc1 [Compound 5n] on HIVLAI, anyone have it?
< 6.00
